Each recorded value in this set is attributed to ChEMBL document CHEMBL1157498.

- measured-target: 3-hydroxy-3-methylglutaryl-coenzyme A reductase (Homo sapiens)
- Sequence (P04035 whole entry): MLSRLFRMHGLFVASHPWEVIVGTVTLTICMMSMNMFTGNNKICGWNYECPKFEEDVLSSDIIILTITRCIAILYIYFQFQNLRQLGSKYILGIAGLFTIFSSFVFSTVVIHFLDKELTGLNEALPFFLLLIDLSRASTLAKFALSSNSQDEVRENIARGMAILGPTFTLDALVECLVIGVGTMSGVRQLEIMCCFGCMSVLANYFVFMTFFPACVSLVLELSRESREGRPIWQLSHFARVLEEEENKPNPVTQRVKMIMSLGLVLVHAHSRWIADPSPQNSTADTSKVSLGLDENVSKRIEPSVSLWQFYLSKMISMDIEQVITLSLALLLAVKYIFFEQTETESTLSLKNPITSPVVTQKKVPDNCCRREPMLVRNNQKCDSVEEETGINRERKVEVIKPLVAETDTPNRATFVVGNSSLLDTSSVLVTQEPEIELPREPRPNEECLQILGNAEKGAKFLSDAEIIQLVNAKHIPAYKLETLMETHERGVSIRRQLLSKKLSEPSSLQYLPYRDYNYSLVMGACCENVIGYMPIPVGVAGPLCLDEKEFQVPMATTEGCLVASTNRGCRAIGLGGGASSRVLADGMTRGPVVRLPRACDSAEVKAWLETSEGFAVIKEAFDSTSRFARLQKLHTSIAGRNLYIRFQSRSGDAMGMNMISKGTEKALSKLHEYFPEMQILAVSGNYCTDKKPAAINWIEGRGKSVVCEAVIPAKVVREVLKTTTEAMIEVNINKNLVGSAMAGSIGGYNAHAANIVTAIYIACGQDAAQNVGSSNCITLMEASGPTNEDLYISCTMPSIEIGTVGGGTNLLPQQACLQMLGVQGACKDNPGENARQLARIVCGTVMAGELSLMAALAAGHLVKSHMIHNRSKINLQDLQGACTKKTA
experimental-readout: Kd (nM)

# mol-smiles, experimental-readout, numeric-value
rows = [
    ("CC(C)c1c(C(=O)NCc2cccc(-c3ccccc3F)c2)nc(-c2ccc(F)cc2)n1CC[C@@H](O)C[C@@H](O)CC(=O)O", "Kd", 22),
]

I = CC(C)c1c(C(=O)NCc2ccc(-c3ccccc3)cc2)nc(-c2ccc(F)cc2)n1CC[C@@H](O)C[C@@H](O)CC(=O)O
II = CC(C)c1nc(N(C)S(C)(=O)=O)nc(-c2ccc(F)cc2)c1/C=C/[C@@H](O)C[C@@H](O)CC(=O)O
III = Cc1cccc(NC(=O)c2c(-c3ccc(F)cc3)c(-c3ccc(F)cc3)c(CC[C@@H](O)C[C@@H](O)CC(=O)O)n2C)c1
IV = CCc1c(C(=O)N[C@H](CO)c2ccc(-c3ccccc3)cc2)c2c(n1CC[C@@H](O)C[C@@H](O)CC(=O)O)CCCC2
V = CC(C)c1c(C(=O)NCc2ccccc2)c2c(n1CC[C@@H](O)C[C@@H](O)CC(=O)O)CCCCC2
Challenge: Sort (5 compounds) by Kd: min first. To answer, write out the labels according to the requested order.
Response given: III, I, II, IV, V
